Where do these numbers come from? They come from patent US10722501B2.

Listed here are molecules together with their documented IC50.
- experimental-system: recombinant full-length human prolyl endopeptidase (PREP) (Homo sapiens)
- Construct: To recombinant full-length human prolyl endopeptidase (PREP, R&D-Systems, 4308-SE)
- procedure-details: Biochemical human prolyl endopeptidase (PREP) assay with fluorescently labelled substrate
- measurement-context: substrate Z-Gly-Pro-AMC 50 μM, 32° C., 60 min; some as mean values from multiple independent determinations
Respond with the figure and its unit, in that order.

O=C([C@@H]1CCCc2nn(Cc3ccc(C(F)F)nc3)c(=O)n21)N1C[C@@H](F)[C@@H](F)C1 [Example 207] :: 4.2 nM
O=C([C@@H]1CCCc2nn(Cc3ccc(F)c(Cl)c3)c(=O)n21)N1CCC2CC21 (single isomer, unassigned) [Example 203] :: 0.82 nM
Cc1ccc(Cn2nc3n(c2=O)C(C(=O)N2CC(O)C2)CCC3)cc1 (single isomer, unassigned) [Example 121] :: 4.3 nM
O=C([C@@H]1CCCc2nn(Cc3cnc(C(F)(F)F)c(Cl)c3)c(=O)n21)N1CCCC1 [Example 545] :: 0.67 nM
Cc1ccc(Cn2nc3n(c2=O)C(C(=O)N2CC(F)C2)CCC3)cc1 (racemic) [Example 112] :: 1.59 nM

Query block: If you can, please state the reported IC50 value of O=C(C1CCCc2nn(Cc3ccc(F)c(F)c3)c(=O)n21)N1CCC(F)(F)C1 (racemic) [Example 83] .
Result block: 2.1 nM

Query block: If you can, please state the reported IC50 value of O=C(C1CCCc2nn(Cc3ccc(C(F)(F)F)nc3)c(=O)n21)N1CC[C@@H](F)C1 (mixture of isomers) [Example 100] .
Result block: 7.9 nM

* * *

- experimental-system: recombinant full-length human prolyl endopeptidase (PREP) (Homo sapiens, UniProt P48147)
- Construct: To recombinant full-length human prolyl endopeptidase (PREP, R&D-Systems, 4308-SE)
- Sequence (P48147 whole entry): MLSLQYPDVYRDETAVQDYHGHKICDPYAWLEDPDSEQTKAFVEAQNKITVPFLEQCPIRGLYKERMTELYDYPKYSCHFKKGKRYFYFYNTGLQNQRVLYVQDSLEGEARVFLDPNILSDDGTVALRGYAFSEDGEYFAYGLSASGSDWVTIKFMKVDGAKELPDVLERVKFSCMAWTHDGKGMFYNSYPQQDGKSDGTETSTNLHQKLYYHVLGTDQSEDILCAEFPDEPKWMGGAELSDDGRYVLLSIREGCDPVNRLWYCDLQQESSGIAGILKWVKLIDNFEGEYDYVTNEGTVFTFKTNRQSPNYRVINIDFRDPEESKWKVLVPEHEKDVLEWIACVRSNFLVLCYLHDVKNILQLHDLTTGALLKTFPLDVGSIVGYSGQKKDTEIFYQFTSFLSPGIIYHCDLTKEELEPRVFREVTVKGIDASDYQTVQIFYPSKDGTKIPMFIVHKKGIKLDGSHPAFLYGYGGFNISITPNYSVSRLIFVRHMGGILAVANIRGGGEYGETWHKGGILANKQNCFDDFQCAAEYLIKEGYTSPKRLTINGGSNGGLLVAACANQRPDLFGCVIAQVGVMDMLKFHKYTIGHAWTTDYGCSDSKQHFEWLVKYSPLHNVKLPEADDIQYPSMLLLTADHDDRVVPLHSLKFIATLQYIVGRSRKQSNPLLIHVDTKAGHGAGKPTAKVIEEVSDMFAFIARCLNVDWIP
- procedure-details: Biochemical human prolyl endopeptidase (PREP) assay with fluorescently labelled substrate
- measurement-context: substrate Z-Gly-Pro-AMC 50 μM, 32° C., 60 min; some as mean values from multiple independent determinations
Checkbox rule: IC50 lower than 6 nM = TRUE; IC50 not lower than 6 nM = FALSE.

COC1CN(C(=O)C2CCCc3nn(Cc4ccc(C)cc4)c(=O)n32)C1 (racemic) [Example 125] :: FALSE
O=C(C1CC(C(F)(F)F)Cc2nn(Cc3ncc(Cl)cc3F)c(=O)n21)N1CC[C@H](F)C1 (mixture of isomers) [Example 263] :: TRUE
O=C(C1CCCc2nn(Cc3ccc(F)c(Cl)c3)c(=O)n21)N1CC(O)C1 (racemic) [Example 95] :: FALSE
O=C(C1CC(C(F)(F)F)Cc2nn(Cc3ccc(C(F)(F)F)nc3)c(=O)n21)N1CC(F)C(F)C1 (single isomer, unassigned) [Example 583] :: FALSE
O=C([C@@H]1CCCc2nn(Cc3ccc(C(F)(F)F)c(Cl)c3)c(=O)n21)N1CC[C@H](F)C1 [Example 461] :: TRUE

Query block: Strictly below 6 nM: is that where IC50 of Cc1ccc(Cn2nc3n(c2=O)C(C(=O)N2CCC(=O)C2)CCC3)cc1 (racemic) [Example 118] sits?
Result block: TRUE

Query block: Strictly below 6 nM: is that where IC50 of O=C(C1CCCc2nn(Cc3ccc(F)c(Cl)c3)c(=O)n21)N1CCC(F)(F)C1 (racemic) [Example 86] sits?
Result block: TRUE

Query block: Strictly below 6 nM: is that where IC50 of O=C([C@@H]1CCC(F)(F)c2nn(Cc3ncc(C(F)(F)F)cc3Cl)c(=O)n21)N1CCC(F)(F)C1 [Example 590] sits?
Result block: TRUE

Query block: Strictly below 6 nM: is that where IC50 of O=C([C@@H]1CCCc2nn(CCc3ccc(F)cc3)c(=O)n21)N1CC(F)C1 [Example 520] sits?
Result block: TRUE

* * *

- experimental-system: recombinant full-length human prolyl endopeptidase (PREP) (Homo sapiens, UniProt P48147)
- Construct: To recombinant full-length human prolyl endopeptidase (PREP, R&D-Systems, 4308-SE)
- procedure-details: Biochemical human prolyl endopeptidase (PREP) assay with fluorescently labelled substrate
- measurement-context: substrate Z-Gly-Pro-AMC 50 μM, 32° C., 60 min; some as mean values from multiple independent determinations
Listed here are compounds together with their documented pIC50.
pIC50 is defined as minus the log10 of a concentration measured in mol/L.

Here's what some known entries look like.
Cn1nc(Cn2nc3n(c2=O)[C@H](C(=O)N2C[C@@H](F)[C@@H](F)C2)CCC3)c2cccnc21 [Example 414] :: 9.10
O=C(C1CC(C(F)(F)F)Cc2nn(Cc3ncc(F)cc3Cl)c(=O)n21)N1CC[C@H](F)C1 (single isomer, unassigned) [Example 572] :: 8.85

Query block: If you can, please state the reported pIC50 value of O=C(C1CC(C(F)(F)F)Cc2nn(Cc3cncc(Cl)c3)c(=O)n21)N1CC[C@H](F)C1 (single isomer, unassigned) [Example 317] .
Result block: 9.39

Query block: If you can, please state the reported pIC50 value of O=C([C@@H]1CCC(F)(F)c2nn(Cc3ccc(Cl)cn3)c(=O)n21)N1CCC(F)(F)C1 [Example 586] .
Result block: 7.85

Query block: If you can, please state the reported pIC50 value of O=C([C@@H]1CCCc2nn(Cc3ccnc(C(F)(F)F)c3F)c(=O)n21)N1CC(F)C1 [Example 483] .
Result block: 8.68

Query block: If you can, please state the reported pIC50 value of O=C([C@@H]1CCCc2nn(Cc3ccc(Cl)c(F)c3)c(=O)n21)N1CC(F)(F)C1 [Example 465] .
Result block: 8.68

Query block: If you can, please state the reported pIC50 value of O=C([C@@H]1CCCc2nn(Cc3ccc(Br)cc3F)c(=O)n21)N1C[C@@H](F)[C@@H](F)C1 [Example 215] .
Result block: 9.28

Query block: If you can, please state the reported pIC50 value of COc1ccc(CCn2nc3n(c2=O)[C@H](C(=O)N2CC(F)C2)CCC3)cc1 [Example 347] .
Result block: 8.32

Query block: If you can, please state the reported pIC50 value of Cc1ccc(Cn2nc3n(c2=O)[C@H](C(=O)N2CC[C@@H](O)C2)CCC3)cc1 [Example 122] .
Result block: 7.99

Query block: If you can, please state the reported pIC50 value of O=C([C@@H]1CCCc2nn(Cc3ncc(F)cc3Cl)c(=O)n21)N1CC[C@H](F)C1 [Example 560] .
Result block: 9.37

Query block: If you can, please state the reported pIC50 value of O=C([C@@H]1CCc2nn(Cc3ccc(Cl)nc3)c(=O)n21)N1CCCC1 [Example 52] .
Result block: 8.34

* * *

- experimental-system: recombinant full-length human prolyl endopeptidase (PREP) (Homo sapiens, UniProt P48147)
- Construct: To recombinant full-length human prolyl endopeptidase (PREP, R&D-Systems, 4308-SE); purchased R&D-Systems 4308-SE
- procedure-details: Biochemical human prolyl endopeptidase (PREP) assay with fluorescently labelled substrate
- measurement-context: substrate Z-Gly-Pro-AMC 50 μM, 32° C., 60 min; some as mean values from multiple independent determinations
Listed here are compounds together with their documented IC50.
Express it in nM; write the number only.

Here's what some known entries look like.
CCn1nc(C(F)(F)F)cc1Cn1nc2n(c1=O)[C@H](C(=O)N1CC(F)C1)CCC2 :: 2.3
O=C(C1C(C(F)(F)F)CCc2nn(Cc3ncc(Cl)cc3F)c(=O)n21)N1CC[C@H](F)C1 (mixture of isomers) [Example 294] :: 20
O=C([C@@H]1CCCc2nn(Cc3ncccc3Cl)c(=O)n21)N1CC(F)C1 :: 6
O=C(C1CCc2nn(Cc3ccc(C(F)(F)F)nc3)c(=O)n21)N1CC(F)C1 (racemic) :: 90
CC1Cc2nn(Cc3ccc(C(F)(F)F)nc3)c(=O)n2C(C(=O)N2CC[C@H](F)C2)C1 (single isomer, unassigned) [Example 137] :: 130
O=C(C1CCCc2nn(Cc3cc(F)cc(C(F)(F)F)c3)c(=O)n21)N1CCCC1 (racemic) :: 0.83

Now for the compound whose IC50 we want.
Query block: If you can, please state the reported IC50 value of `COc1ncc(Cn2nc3n(c2=O)[C@H](C(=O)N2CCC(F)(F)C2)CCC3)cc1Cl` .
Result block: 0.61

* * *

- experimental-system: recombinant full-length human prolyl endopeptidase (PREP) (Homo sapiens)
- Construct: To recombinant full-length human prolyl endopeptidase (PREP, R&D-Systems, 4308-SE)
- procedure-details: Biochemical human prolyl endopeptidase (PREP) assay with fluorescently labelled substrate
- measurement-context: substrate Z-Gly-Pro-AMC 50 μM, 32° C., 60 min; some as mean values from multiple independent determinations
Each entry falls in a class defined on IC50; the bands are lowest (below 0.8 nM), middle (0.8 nM to below 5 nM), highest (5 nM or more)

Worked examples follow.
O=C([C@@H]1CCCc2nn(Cc3ccc(F)cc3F)c(=O)n21)N1CCC(F)(F)C1 [Example 487] :: lowest
O=C([C@@H]1CCCc2nn(Cc3ccc(F)nc3)c(=O)n21)N1CCC(F)(F)C1 [Example 536] :: highest
O=C(C1C(C(F)(F)F)CCc2nn(Cc3ncc(Cl)cc3F)c(=O)n21)N1CC[C@H](F)C1 (single isomer, unassigned) [Example 295] :: highest
Cc1cc(Cn2nc3n(c2=O)C(C(=O)N2CCCC2)CCC3)on1 (racemic) [Example 13] :: highest
O=C([C@@H]1CCCc2nn(CCc3ccc(F)cc3)c(=O)n21)N1C[C@@H](F)[C@@H](F)C1 [Example 344] :: lowest
O=C(C1CC(C(F)(F)F)Cc2nn(Cc3ncc(C(F)(F)F)cc3Cl)c(=O)n21)N1CC[C@H](F)C1 (mixture of isomers) [Example 562] :: middle
O=C(C1CCc2nn(Cc3ccc(Cl)nc3)c(=O)n21)N1CC[C@H](F)C1 (mixture of isomers) [Example 163] :: middle
Cc1ccc(C(C)n2nc3n(c2=O)[C@H](C(=O)N2CCCC2)CCC3)cc1 (mixture of isomers) [Example 502] :: middle
O=C(C1CC(C(F)(F)F)Cc2nn(Cc3ccc(Cl)cn3)c(=O)n21)N1CCC(F)(F)C1 (single isomer, unassigned) [Example 567] :: middle
O=C(C1C(C(F)(F)F)CCc2nn(Cc3ccc(Cl)cn3)c(=O)n21)N1C[C@@H](F)[C@@H](F)C1 (single isomer, unassigned) [Example 301] :: highest

Query block: Which class holds O=C([C@@H]1CCCc2nn(Cc3ncc(Cl)cc3F)c(=O)n21)N1CC[C@H](F)C1 [Example 568] ?
Result block: lowest

Query block: Which class holds O=C(C1CCCc2nn(Cc3ccc(C(F)(F)F)c(F)c3)c(=O)n21)N1CCCC1 (racemic) [Example 14] ?
Result block: lowest

Query block: Which class holds O=C([C@@H]1CCCc2nn(Cc3cccc(Br)c3)c(=O)n21)N1CC[C@H](F)C1 [Example 213] ?
Result block: lowest
